B1: CPEB3 Ribozyme (parent)
chain: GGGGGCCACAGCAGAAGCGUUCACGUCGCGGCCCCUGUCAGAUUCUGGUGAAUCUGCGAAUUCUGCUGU

- Variants of: B1
- Procedure Text: self-cleavage, relative activity (ratio to wild type); higher = more cleavage; co-transcriptional
Assay Endpoint: self-cleavage
Answers are plain numbers.

mutation_annotation="C45G G50C" endpoint_value=1.01
mutation_annotation="U44G A60U" endpoint_value=0.382
mutation_annotation="G14A G31A" endpoint_value=0.249
mutation_annotation="U44A U53A" endpoint_value=0.922
mutation_annotation="U20G G25U" endpoint_value=0.185
mutation_annotation="U44G G50U" endpoint_value=0.98

Now examine the next entry.
Exercise: # get_value(readout='self-cleavage', item= G5U C34G )
Key: 0.0508
